assay: AUC(0 to t) in Sprague-Dawley rat at 1 mg/kg, iv by LC-MS analysis; assay type: ADME, organism-based; set-up: dose 1 mg/kg, route iv; settings: in vivo
property measured: AUC(0-t) (ng·h/mL)

query smiles	observed
COc1cc(OC)c2c(=O)[nH]c(-c3ccc(OCC(=O)Nc4ccc(N5CCN(C)CC5)c(Cl)c4)cc3)nc2c1	579

* * *

# IC50 per record follows
test system: MDA-MB-231; test: cells; conditions: Homo sapiens, MDA-MB-231, 24 h

query smiles	IC50
CC(=O)Nc1ccc(-c2nc3ccccc3c(=O)[nH]2)cc1	> 50 µM
COc1ccc2nc(-c3ccc(C)cc3)[nH]c(=O)c2c1	> 50 µM
COc1cc(OC)c2c(=O)[nH]c(-c3ccccc3OC)nc2c1	> 50 µM
COc1cc(OC)c2c(=S)cc(-c3cc(C)cc(C)c3)oc2c1	> 50 µM

* * *

tested on: MDA-MB-231; assay: cells; details: Homo sapiens, MDA-MB-231, 24 h

query smiles	test target	unit	value comparator	IC50
COc1cc(OC)c2c(=O)[nH]c(-c3cc(C)c(OCC(=O)Nc4nc5ccccc5[nH]4)c(C)c3)nc2c1	MDA-MB-231	µM	>	50
COc1ccc2nc(-c3cc(OC)c(O)c(OC)c3)[nH]c(=O)c2c1	MDA-MB-231	µM	>	50
CN1CCN(c2ccc(NC(=O)COc3ccc(-c4nc5ccc(Cl)cc5c(=O)[nH]4)cc3)cc2Cl)CC1	MDA-MB-231	µM	=	5.21
COc1cc(OC)c2c(=O)[nH]c(-c3ccc(NC(C)=O)cc3)nc2c1	MDA-MB-231	µM	=	27.3
COc1cc(OC)c2c(=O)[nH]c(-c3cc(C)c(OCC(=O)Nc4ccc(N5CCOCC5)c(Cl)c4)c(C)c3)nc2c1	MDA-MB-231	µM	=	10.2
COc1cc(OC)c2c(=O)[nH]c(-c3cc(Br)c(OCC(=O)NC4CCN(C)CC4)c(Br)c3)nc2c1	MDA-MB-231	µM	=	16.9
COc1ccc2oc(-c3cc(C)cc(C)c3)cc(=O)c2c1	MDA-MB-231	µM	=	45.7
COc1cc(OC)c2c(=O)[nH]c(-c3cc(Br)c(OCC(=O)Nc4ccc(N5CCOCC5)cc4)c(Br)c3)nc2c1	MDA-MB-231	µM	=	13.2
COc1cc(OC)c2c(=O)[nH]c(-c3ccc(OCC(=O)Nc4ccc(N5CCN(C)CC5)cc4)cc3)nc2c1	MDA-MB-231	µM	=	6.46
COc1cc(-c2nc3ccccc3c(=O)[nH]2)cc(OC)c1O	MDA-MB-231	µM	>	50
COc1cccc(-c2cc(=S)c3cc(OC)ccc3o2)c1	MDA-MB-231	µM	>	50
COc1cc(OC)c2c(=O)[nH]c(-c3cc(C)c(OCC(=O)NC4CCN(C(=O)OC(C)(C)C)CC4)c(C)c3)nc2c1	MDA-MB-231	µM	=	22.4
COc1cc(OC)c2c(=O)[nH]c(-c3cccc(C)c3)nc2c1	MDA-MB-231	µM	=	43.9
COc1cccc(-c2cc(=O)c3cc(OC)ccc3o2)c1	MDA-MB-231	µM	>	50
COc1cc(OC)c2c(=O)[nH]c(-c3ccccc3OCC(=O)O)nc2c1	MDA-MB-231	µM	=	36.7
COc1cc(OC)c2c(=O)[nH]c(-c3ccc(OCC(=O)Nc4ccccc4N4CCN(C)CC4)cc3)nc2c1	MDA-MB-231	µM	=	17.3
O=c1cc(-c2ccccc2)oc2ccc(Br)cc12	MDA-MB-231	µM	=	33.5
COc1ccc2nc(-c3ccc(NC(C)=O)cc3)[nH]c(=O)c2c1	MDA-MB-231	µM	>	50
COc1cc(OC)c2c(=O)[nH]c(-c3cc(C)c(OCC(=O)Nc4ccc(N5CCN(C)CC5)c(F)c4)c(C)c3)nc2c1	MDA-MB-231	µM	=	5.72
COc1cc(OC)c2c(=O)[nH]c(-c3cc(Br)c(OCC(=O)Nc4ccc(N5CCN(C)CC5)cc4)c(Br)c3)nc2c1	MDA-MB-231	µM	=	13.6
COc1cc(OC)c2c(=O)[nH]c(-c3ccc(OCC(=O)NCC4CCOCC4)cc3)nc2c1	MDA-MB-231	µM	=	21.2
COc1cc(OC)c2c(=O)[nH]c(-c3cc(C)c(OCC(=O)Nc4ccc(N5CCOCC5)c(F)c4)c(C)c3)nc2c1	MDA-MB-231	µM	=	10.3
COc1cc(OC)c2c(=O)[nH]c(-c3cc(Br)c(OCC(=O)Nc4ccc(N5CCCCC5)cc4)c(Br)c3)nc2c1	MDA-MB-231	µM	=	16.4
